System: Plasmodium falciparum
Test: Antimalarial activity against mefloquine-resistant Plasmodium falciparum TM91C235 assessed as [3H]hypoxanthine incorporation after 48 hrs
Type: functional, organism-based
reported-metric: IC50 (nM)
Give bare numbers, in nM.

For every record below, what is its IC50?
1. CC[C@H]1OC(=O)[C@H](C)[C@@H](O[C@H]2C[C@@](C)(OC)[C@@H](O)[C@H](C)O2)[C@H](C)[C@@H](O[C@@H]2O[C@H](C)C[C@H](N(C)C)[C@H]2O)[C@](C)(O)C[C@@H](C)CN(CCCNCc2cccc3ccccc23)[C@H](C)[C@@H](O)[C@]1(C)O
2. CC[C@H]1OC(=O)[C@H](C)[C@@H](O[C@H]2C[C@@](C)(OC)[C@@H](O)[C@H](C)O2)[C@H](C)[C@@H](O[C@@H]2O[C@H](C)C[C@H](N(C)C)[C@H]2O)[C@](C)(O)C[C@@H](C)CN(CCCNCCCc2ccccc2)[C@H](C)[C@@H](O)[C@]1(C)O
3. CCOc1ccc2ccccc2c1CNCCCN1C[C@H](C)C[C@@](C)(O)[C@H](O[C@@H]2O[C@H](C)C[C@H](N(C)C)[C@H]2O)[C@@H](C)[C@H](O[C@H]2C[C@@](C)(OC)[C@@H](O)[C@H](C)O2)[C@@H](C)C(=O)O[C@H](CC)[C@@](C)(O)[C@H](O)[C@H]1C
4. CC[C@H]1OC(=O)[C@H](C)[C@@H](O[C@H]2C[C@@](C)(OC)[C@@H](O)[C@H](C)O2)[C@H](C)[C@@H](O[C@@H]2O[C@H](C)C[C@H](N(C)C)[C@H]2O)[C@](C)(O)C[C@@H](C)CN(CCC(=O)NCCCc2ccccc2)[C@H](C)[C@@H](O)[C@]1(C)O

Resp:
1: 25; 2: 106; 3: 26; 4: 89
